Origin of values: PubChem BioAssay (NCI)

Experiment: NCI Yeast Anticancer Drug Screen. Data for the bub3 strain (AID 167)
Conditions: S. cerevisiae bub3 mutant strain, at 50.0 µM
This is part of a sample that, as a whole, favours compounds with a hit. Of some 79,000 tested, about 15% had one in any assay. Active and inactive are the calls of the source. Cut-off read from the data, not from the text of the source: active = growth inhibition above about 70%; inactive = the rest.
Possible outcomes: active, inactive

| compound | classification |
| --- | --- |
| CC(=O)OCC1OC(n2cnc3c(N)ncnc32)C2OC(C)(C)OC12 (stereo unspecified) | inactive |
| CC(=O)OC1CCCN(C)C1 (stereo unspecified) | inactive |
| O=C(O)c1[nH]c2ccccc2c(=O)c1-c1ccccc1 | inactive |
| COc1c(CCl)cc(-c2sc3ccccc3c(=O)c2CCl)cc1CCl | inactive |
| O=C1c2ccccc2C(=O)N1CCOCCOCCN1C(=O)c2ccccc2C1=O | inactive |
| BrCC1=CC(c2ccccc2)(c2ccccc2)c2ccccc21 | active |
| CN(C)/C=N/NC(=O)C(O)(c1ccccc1)c1ccccc1 | inactive |
| Cc1cc(=O)c2c(=O)n(-c3ccccc3)[nH]c2[nH]1 | inactive |
| COc1nc2[nH]c(C)cc(=O)c2c2ccccc12 | inactive |
| CC(=O)OC(OC(C)=O)c1cccc2ccccc12 | inactive |
| C/C(=N\NC(N)=O)c1ccc(Cl)c(-n2cccc2)c1 | inactive |
| CCOC(=O)c1c2ccc(/C=C/c3ccccc3)ccc-2c(C(=O)OCC)c1N | inactive |
| CCC(C)C(NS(=O)(=O)Cc1ccccc1)C(=O)O (stereo unspecified) | inactive |
| Cc1ccc(Cl)c2c1C(=O)c1ccccc1C2=O | inactive |
| CCOC(=O)CNc1nnnn1C1OC(CO)C(O)C1O (stereo unspecified) | inactive |
| COC(=O)CCSc1ccccc1 | inactive |
| OC(CNc1ncccn1)(c1ccccc1)c1ccccc1 | inactive |
| CC/C(C)=N\NC(=O)CC(=O)N/N=C(/C)CC | inactive |
| C=CCC1(C)C=C(C)C(=O)C(C)=C1 | inactive |
| CC(=O)C1CC2CCC1C2 (stereo unspecified) | inactive |
| CC[N+](CC)(CC)CC(=O)c1ccc(Br)cc1 | inactive |
| Cn1ncc2c(N)nc(NCCO)nc21 | inactive |
| Nc1ncnc2nc[nH]c12 | inactive |
| COc1cc(NCCNCC(C)(C)C)c2ncccc2c1 | inactive |
| C[C@@]12CCC3C1C=C1C(=O)c4cc(O)ccc4C(=O)[C@]1(O2)[C@@]3(C)C=O | active |
| COc1ccc2c3c(c(C(=O)O)oc13)CCC2 | inactive |
| Nc1nc2c3nc(Nc4ccccc4)sc3nc(=O)n2c2sc(Nc3ccccc3)nc12 | inactive |
| COC(=O)c1cc(Cl)c(C(=O)OC)cc1Cl | inactive |
| O=S1(=O)COc2ccccc2-c2ncncc21 | inactive |
| CC1=CC(C)(C)NC(=S)N1c1ccc(O)cc1 | inactive |
| CCOc1c(C)cc(C(C)c2cc3c(cc2OC)OCO3)cc1C (stereo unspecified) | inactive |
| COc1ccccc1-c1cc(=O)c2cc(C)cnc2[nH]1 | inactive |
| O=S(=O)(c1ccccc1)c1cccc2c[n+]3ccccc3cc12 | inactive |
| CC(=O)OC12C(C)=C(C)C(=O)N1c1ccccc1N2C(C)=O (stereo unspecified) | inactive |
| CCCSc1n[nH]c(=S)c2nc[nH]c12 | inactive |
| CC(C)(C)N(OC(=O)c1ccc(C#N)cc1)c1ccccc1 | inactive |
| COc1ccccc1/C=N/NS(=O)(=O)c1ccc(NC(C)=O)cc1 | inactive |
| CC(C)=CCC/C(C)=C/CNc1ncnc2c1ncn2C1OC(CO)C(O)C1O (stereo unspecified) | inactive |
| C(=C\c1cc(-c2ccc3ccccc3n2)nc2ccc3ccccc3c12)/c1ccc2ccccc2n1 | inactive |
| CCCCCCSCCO | inactive |
| COc1ccc(C(=O)/C=C/c2cc(C(C)(C)C)c(O)c(C(C)(C)C)c2)cc1 | inactive |
| CC(C)(C)OC(=O)CN1C(=O)CCC1=O | inactive |
| CCCCCCCCC1C(CCCCCCCC(=O)N(CC)CCCOCC)C2(Cl)C(Cl)=C(Cl)C1(Cl)C2(Cl)Cl (stereo unspecified) | inactive |
| N#CCN1c2ccccc2CCC1Cl (stereo unspecified) | inactive |
| CN(C)CCOc1ccccn1 | inactive |
| CC(C)(C)CC(C)(C)c1ccc(OCCOc2ccc([N+](=O)[O-])cc2N)cc1 | inactive |
| COc1cc(C(=O)O)c(C(=O)O)cc1OC | inactive |
| OCC(O)C(OC1OC(CO)C(O)C(O)C1O)C(O)c1cnn(-c2ccccc2)n1 (stereo unspecified) | inactive |
| CC1(C)OC2COC(CN(N=O)C(N)=O)C2O1 (stereo unspecified) | inactive |
| COC1C=CC2OC(c3ccccc3)OCC2O1 (stereo unspecified) | inactive |
| Cc1ccc(C(C)C)cc1NC(=O)c1c(Cl)c(Cl)c(Cl)c(Cl)c1C(=O)O | inactive |
